# target: T1, mIL1RAcP-Fc (murine, UniProt Q61730 21-359)
# T1 construct: also called P013_04; P013-04
# T1 sequence (looked up): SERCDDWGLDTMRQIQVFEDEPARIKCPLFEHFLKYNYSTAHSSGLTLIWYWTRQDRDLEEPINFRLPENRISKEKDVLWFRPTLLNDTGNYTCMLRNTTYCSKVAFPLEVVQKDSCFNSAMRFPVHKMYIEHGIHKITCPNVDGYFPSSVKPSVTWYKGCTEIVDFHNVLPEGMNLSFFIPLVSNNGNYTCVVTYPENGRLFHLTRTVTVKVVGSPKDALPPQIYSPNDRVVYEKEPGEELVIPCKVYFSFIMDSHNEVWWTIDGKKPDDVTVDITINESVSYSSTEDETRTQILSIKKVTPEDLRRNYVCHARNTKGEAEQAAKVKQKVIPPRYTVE
# experiment.description: ELISA, primary supernatant, coated mu-IL-1RAcP-Fc
value.kind: mu-IL1RaP ELISA (OD)
Answers are plain numbers, in OD.

Example binders with recorded mu-IL1RaP ELISA (OD):
INSERT INTO results (binder, reported_value) VALUES
  ('P013.S.02.B.E01 (antibody, V domains shown, rabbit monoclonal antibody; also called P013.A.00013.G07) VH: QSLEESGGRLVTPGTPLTLTCTVSGFSLSIYGMGWVRQAPGEGLEWIGSISSGGSTYYATWAKGRFTISKTSSTTLDLKITSPTTEDTATYFCVRSDGYTNGDYDTYFNLWGQGTLVTVS VL: DIVMTQTPASVSEPVGGTVTIRCQASQSISSWLSWYQQKPGQPPKLLIYQASALASGVSSRFIGSGYGTEFTLTISGVQSEDAATYYCQCTYGIGSNSDYGVAFGGGTEVVVK', -0.1),
  ('P013.S.02.B.C03 (antibody, V domains shown, rabbit monoclonal antibody; also called P013.A.00085.G07) VH: QSLEESGGRLVTPGTPLTLTCTVSGIDLSSYAMGWVRQAPGKGLEYIGIISNSGTTYYASWAKGRFTISKTSSTTVDLKMTSPTTEDTATYFCARDRYANTHGIFSLWGQGTLVTVSS VL: DIVMTQTPASVSAPVGGTVTINCQASESIYSDLAWYQQKPGQPPKLLISFVATLESGVPSRFKGSGSGTEFTLTISDLESADAATYYCQCTYGGSGSGNGAAFGGGTEVVVK', 0.7),
  ('P013.S.02.B.C01 (antibody, V domains shown, rabbit monoclonal antibody; also called P013.A.00109.C12) VH: QSVEESGGRLVTPGGSLTLTCTVSGFSLSVYAMGWFRQAPGKGLEWIGDIYTGSGSTWYASWAKGRFTISKTSTTVDLKITSPTTEDTATYFCAREIDAGYVGYGFNLWGQGTLVTVSS VL: AQALTQTPSSVSAAVGGTVTINCQSSQSVYSDYLVWYQQKPGQPPKLLIYQASKLASGVPSRFKGSGSGTQFTLTISGVQSDDAATYYCQATYSSTGWYRAFGGGTEVVVK', -0.1),
  ('P013.S.02.B.F05 (antibody, V domains shown, rabbit monoclonal antibody; also called P013.A.00109.B04) VH: RSLEESGGDLVKPGTSLTLTCTASGFSFSGNYYMCWVRQAPGKGLEWIACIVVGSGGNTYYAGWAKRRFTISKTSSTTVTLQMTSLTAADTATYFCASGSYDDYGDYWYFTLWGQGTLVTVSS VL: AIDMTQTPSPASAGVGDTVTINCQASENIYNFLAWYQQKPGHSPKLLIYVASKLASGVPSRFKGSGSGTQFTLTISDVQSDDAATYYCQQTYRYNDGDTAFGGGTEVVVK', 0.4);

Consider the additional binder presented here.
Lab book: mu-IL1RaP ELISA (OD) of P013.S.01.B.F05 (antibody, V domains shown, rabbit monoclonal antibody; also called P013.A.00087.C06) VH: QSLEESGGRLVTPGGSLTLTCTVSGIDLSNYAMSWVRQAPGKGLEWIGSVISGGSTYYATWAKGRFTISKTSTTVDLKMTSLTTEDTATYFCARGCPGYNGDKYALDLWGPGTVVTVSS VL: AFEMTQTPSSVSEPVGGTVTIKCQASQSIHNYLSWYQQKPGQRPKLLIYRASTLASGVPSRFKGSGSGTEFTLTISGVESADAATYYCQQGATSYDIDNAFGGGTEVVVK noted as 1.2
